Assign pIC50 to each entry below.
Test system: HL-60
Experiment: Growth inhibition (IC50) in leukaemic HL-60 cells (Experiment 7)
Format: cell-based
Conditions: Homo sapiens; HL-60, 24 Stunden; read-out: IC50 Exp. 2
One number for each entry, as −log10 of the molar value.

Lab note: each compound below needs its pIC50 filled in.
1. CN(C)N=Nc1ccc(C(=O)c2ccccc2)cc1 [Beispiel 2 der DE 1793115]
2. CN(C)N=Nc1ccc(C(=O)c2ccc(O)cc2)cc1 [Beispiel 1]
3. CN(C)N=Nc1ccc(C(=O)c2ccc(OCCC(=O)NCC(=O)O)cc2)cc1 [Präparat 5]
4. COc1cccc2c1C(=O)c1c(O)c3c(c(O)c1C2=O)C[C@@](O)(C(=O)CO)C[C@@H]3O[C@H]1C[C@H](N)[C@H](O)[C@H](C)O1 [Doxorubicin]

[4.93, 4.82, 3.06, 8.94]

###

Please respond with reported IC50 for every item in the list.
Tested on: CEM
Test: Growth inhibition (IC50) in leukaemic CEM cells (Experiment 7)
Assay type: cell-based
Conditions: Homo sapiens, CCRF-CEM, 24 Stunden, mean of Exp. 1-4, read-out: IC50 Mittelwert
One number for each entry, in µM.

# example entries with known answers
[[record]]
moleculesmiles = "CN(C)N=Nc1ccc(C(=O)c2ccccc2)cc1"
experimentalvalue = 10

[[record]]
moleculesmiles = "COc1cccc2c1C(=O)c1c(O)c3c(c(O)c1C2=O)C[C@@](O)(C(=O)CO)C[C@@H]3O[C@H]1C[C@H](N)[C@H](O)[C@H](C)O1"
experimentalvalue = 8510

[[record]]
moleculesmiles = "CN(C)N=Nc1ccc(C(=O)c2ccc(O)cc2)cc1"
experimentalvalue = 22.8


// below: IC50 requested for another compound
GET /values?readout=IC50&item= "CN(C)N=Nc1ccc(C(=O)c2ccc(OCCC(=O)NCC(=O)O)cc2)cc1"
735

###

System: HL-60
Assay: Growth inhibition (IC50) in leukaemic HL-60 cells (Experiment 7)
Type: cell-based
Conditions: Homo sapiens; HL-60, 24 Stunden; read-out: IC50 Exp. 4
parameterMeasured: IC50 (µM)
Answers are plain numbers, in µM.

[[record]]
moleculesmiles = "CN(C)N=Nc1ccc(C(=O)c2ccc(O)cc2)cc1"
parametermeasured = "IC50"
experimentalvalue = 16

[[record]]
moleculesmiles = "CN(C)N=Nc1ccc(C(=O)c2ccccc2)cc1"
parametermeasured = "IC50"
experimentalvalue = 9.47

[[record]]
moleculesmiles = "CN(C)N=Nc1ccc(C(=O)c2ccc(OCCC(=O)NCC(=O)O)cc2)cc1"
parametermeasured = "IC50"
experimentalvalue = 1510


Turning now to a further molecule:
Please give the measured IC50 for this molecule: "COc1cccc2c1C(=O)c1c(O)c3c(c(O)c1C2=O)C[C@@](O)(C(=O)CO)C[C@@H]3O[C@H]1C[C@H](N)[C@H](O)[C@H](C)O1"
0.00131

###

Test system: periphere Blutzellen (PBC)
Experiment: Cell damage (apoptosis rate, CaspACE assay, flow cytometry) in peripheral blood cells (Experiment 5)
Assay type: cell-based
Conditions: Versuch 1 Lymphozyten, 24 Stunden incubation at the IC50 for MDA-MB231
parameterMeasured: % Zellen in Apoptose

Answered examples (3):
[[record]]
compound = "CN(C)N=Nc1ccc(C(=O)c2ccccc2)cc1 [Beispiel 2 der DE 1793115]"
tgt = "periphere Blutzellen (PBC)"
parametermeasured = "% Zellen in Apoptose"
experimentalvalue = "6,570%"

[[record]]
compound = "CN(C)/N=N/c1[nH]cnc1C(N)=O [Dacarbazine]"
tgt = "periphere Blutzellen (PBC)"
parametermeasured = "% Zellen in Apoptose"
experimentalvalue = "8,260%"

[[record]]
compound = "CN(C)N=Nc1ccc(C(=O)c2ccc(O)cc2)cc1 [Beispiel 1]"
tgt = "periphere Blutzellen (PBC)"
parametermeasured = "% Zellen in Apoptose"
experimentalvalue = "8,120%"


Lab note: next compound to report on.
I'd like to know its % Zellen in Apoptose. The compound in question is Cn1nnc2c(C(N)=O)ncn2c1=O [Temozolomide]
15,320%
